Values of CC50 reported for LLC cells appear below.

cpdSmiles: CC(C)n1ncc2c(C(=O)Nc3ccncn3)cc(-c3cccs3)nc21
system: LLC cells
endpointUnit: µM
inequalitySymbol: =
CC50: 50
//
cpdSmiles: CC(C)n1ncc2c(C(=O)Nc3ccccn3)cc(-c3cccs3)nc21
system: LLC cells
endpointUnit: µM
inequalitySymbol: >
CC50: 200
//
cpdSmiles: CC(C)n1ncc2c(C(=O)Nc3c(F)cccc3F)cc(-c3cccs3)nc21
system: LLC cells
endpointUnit: µM
inequalitySymbol: >
CC50: 200
//
cpdSmiles: CC(C)n1ncc2c(C(=O)Nc3cccc(F)c3)cc(-c3cccs3)nc21
system: LLC cells
endpointUnit: µM
inequalitySymbol: >
CC50: 200
//
cpdSmiles: CC(C)n1ncc2c(C(=O)Nc3ccccc3F)cc(-c3ccncc3)nc21
system: LLC cells
endpointUnit: µM
inequalitySymbol: =
CC50: 45
//
cpdSmiles: CC(C)n1ncc2c(C(=O)Nc3cc(C(N)=O)ccc3F)cc(-c3cccs3)nc21
system: LLC cells
endpointUnit: µM
inequalitySymbol: =
CC50: 25
//
cpdSmiles: CNS(=O)(=O)c1cccc(NC(=O)c2cc(-c3cccs3)nc3c2cnn3C(C)C)c1
system: LLC cells
endpointUnit: µM
inequalitySymbol: =
CC50: 25
//
cpdSmiles: CC(C)n1ncc2c(C(=O)N3CCc4cc(F)ccc43)cc(-c3cccs3)nc21
system: LLC cells
endpointUnit: µM
inequalitySymbol: >
CC50: 200
//
cpdSmiles: CC(C)n1ncc2c(C(=O)Nc3ccccc3S(N)(=O)=O)cc(-c3cccs3)nc21
system: LLC cells
endpointUnit: µM
inequalitySymbol: =
CC50: 25

---

Values of CC50 reported for MDCK appear below.
measuredParameter: CC50

cpdSmiles: CC(C)n1ncc2c(C(=O)Nc3ccc(F)cc3)cc(-c3ccsc3)nc21
observed: 17.7 µM

cpdSmiles: CC(C)n1ncc2c(C(=O)Nc3ccc(F)cc3F)cc(-c3cccs3)nc21
observed: > 100 µM

cpdSmiles: CC(C)n1ncc2c(C(=O)Nc3ccc(F)cc3)cc(-c3cccs3)nc21
observed: > 100 µM

cpdSmiles: CC(C)n1ncc2c(C(=O)Nc3ccccc3F)cc(-c3cccs3)nc21
observed: > 100 µM

cpdSmiles: CC(C)n1ncc2c(C(=O)Nc3cccc(S(N)(=O)=O)c3)cc(-c3cccs3)nc21
observed: > 100 µM

---

# Test system: Enterovirus D68/US/KY/14-18953
# procedureText: Antiviral assay, Enterovirus D68 strain US/KY/14-18953 in RD cells
# Assay type: cell-based
# experimentalParameters: Enterovirus D
pEC50: −log10 of the molar value.

cpdSmiles: CC(C)n1ncc2c(NC(=O)c3ccc(F)cc3)cc(-c3cccs3)nc21
pEC50: 5.47

---

# procedureText: in vitro
# experimentalParameters: African green monkey
measuredParameter: CC50

compound: Nc1cc2nc[nH]c2c(=O)[nH]1 [3-Deazaguanine, reference compound]
observed: > 100 µM

---

# Tested on: RD cells

cpdSmiles: CC(C)n1ncc2c(C(=O)Nc3ccc(F)cc3)cc(-c3cccs3)nc21
endpointUnit: µM
inequalitySymbol: >
CC50: 200

cpdSmiles: CC(C)n1ncc2c(C(=O)Nc3ccncn3)cc(-c3ccsc3)nc21
endpointUnit: µM
inequalitySymbol: =
CC50: 75

cpdSmiles: CC(C)n1ncc2c(C(=O)Nc3ccc(F)cc3)cc(-c3ccco3)nc21
endpointUnit: µM
inequalitySymbol: >
CC50: 200

cpdSmiles: CC(C)(C)n1ncc2c(C(=O)Nc3ccccc3F)cc(-c3cccs3)nc21
endpointUnit: µM
inequalitySymbol: >
CC50: 200

cpdSmiles: CC(C)n1ncc2c(C(=O)Nc3ccc(F)cn3)cc(-c3cccs3)nc21
endpointUnit: µM
inequalitySymbol: =
CC50: 25

cpdSmiles: CC(C)n1ncc2c(C(=N)Nc3cccnc3)cc(-c3cccs3)nc21
endpointUnit: µM
inequalitySymbol: =
CC50: 75

cpdSmiles: CC(C)n1ncc2c(C(=O)Nc3cccc(S(N)(=O)=O)c3)cc(-c3cccs3)nc21
endpointUnit: µM
inequalitySymbol: =
CC50: 50

cpdSmiles: CC(C)n1ncc2c(C(=O)Nc3cc(C(N)=O)ccc3F)cc(-c3cccs3)nc21
endpointUnit: µM
inequalitySymbol: =
CC50: 25

cpdSmiles: CC(C)n1ncc2c(C(=O)Nc3cccc(C(N)=O)c3)cc(-c3cccs3)nc21
endpointUnit: µM
inequalitySymbol: =
CC50: 25

cpdSmiles: CC(C)n1ncc2c(C(=O)Nc3cccc(S(=O)(=O)N(C)C)c3)cc(-c3cccs3)nc21
endpointUnit: µM
inequalitySymbol: >
CC50: 200

cpdSmiles: CC(C)n1ncc2c(C(=O)Nc3ccccc3F)cc(-c3cccs3)nc21
endpointUnit: µM
inequalitySymbol: =
CC50: 200

cpdSmiles: CC(C)n1ncc2c(C(=O)N3CCc4cc(F)ccc43)cc(-c3cccs3)nc21
endpointUnit: µM
inequalitySymbol: >
CC50: 200

cpdSmiles: CC(C)n1ncc2c(C(=O)Nc3ccccn3)cc(C3CC3)nc21
endpointUnit: µM
inequalitySymbol: =
CC50: 37

cpdSmiles: CC(C)n1ncc2c(C(=O)Nc3cccc(S(N)(=O)=O)c3)cc(C3CC3)nc21
endpointUnit: µM
inequalitySymbol: >
CC50: 200

cpdSmiles: CC(C)n1ncc2c(C(=N)Nc3ccc(F)cc3)cc(-c3cccs3)nc21
endpointUnit: µM
inequalitySymbol: =
CC50: 100

cpdSmiles: CC(C)n1ncc2c(C(=O)Nc3ccc(F)cc3F)cc(-c3cccs3)nc21
endpointUnit: µM
inequalitySymbol: =
CC50: 100
